System: Bacillus subtilis
Experiment: cleaved RNA product abundance (RNA/gDNA barcode ratio) relative to median wild-type variant (ratio to wild type); higher = more accumulation of the downstream cleavage product
Settings: experiment (reporter, strain, medium): exp 8a: truncated aprE reporter, strain BJT201 with 2% xylose (RNase J1 expressed); cleavage site: glnRA (positions -5 to +31 mutated)
EXPERIMENTAL_READOUT: cleaved RNA product abundance

INSERT INTO assay_data (residue_codes, experimental_readout, reported_measurement) VALUES
  ('CGACATGTCCCGCTTCTTTCATTAATCTGTTAGCAACTGTTTTTCTATATACATTTACCTTTTAAGAGGAGGAAT', 'cleaved RNA product abundance', 0.483),
  ('CGACATGTCCCGCTTCTTTCATTAATCCGTTAGCAACTGTTTTGCTATATATATATACCTTTTAAGAGGAGGAAT', 'cleaved RNA product abundance', 1.12),
  ('CGACATGTCCCGCTTCTTTCATTAATCCGTTAGCAACTGTTTTGCTATATAGAATTACCTTTTAAGAGGAGGAAT', 'cleaved RNA product abundance', 1.14),
  ('CGACATGTCCCGCTTCTTTCATTATTCCTTAAACAACTGTTTTGTAATATACATTATACCTTTAAGAGGAGGAAT', 'cleaved RNA product abundance', 0.242),
  ('CGACATGTCCCGCTTCTTTCATTACTCCGTTAGCAACTGTTTTGCTCTATACATTTACCTTTTAAGAGGAGGAAT', 'cleaved RNA product abundance', 0.288),
  ('CGACATGTCCCGCTTCTTTCATTATTCCGTTAGCAACTTTTTTGCTATATACATTTACCTTTTAAGAGGAGGAAT', 'cleaved RNA product abundance', 2.24),
  ('CGACATGTCCCGCTTCTTTCATTAATCCGTTAGCAACTGTTATGCTATATACATTTACTTTTTAAGAGGAGGAAT', 'cleaved RNA product abundance', 1.33),
  ('CGACATGTCCCGCTTCTTTCATTAATCCGTTAGCAACTGTTTTGCTATTTACATATACCTTTTAAGAGGAGGAAT', 'cleaved RNA product abundance', 0.317),
  ('CGACATGTCCCGCTTCTTTCATTATCCGTTAGCAACTGTTTTGCTATATACATTTACCTTTTAAGAGGAGGAATT', 'cleaved RNA product abundance', 0.941),
  ('CGACATGTCCCGCTTCTTTCATTAATCTGTTAGCAACTGTTTTGCTATATCCATTTACCTTTTAAGAGGAGGAAT', 'cleaved RNA product abundance', 0.263),
  ('CGACATGTCCCGCTTCTTTCATTAATACGTTAGCAACTGTTTTGCTATATACATTTACTTTTTAAGAGGAGGAAT', 'cleaved RNA product abundance', 0.472),
  ('CGACATGTCCCGCTTCTTTCATTAATCCGTTATGAACTGTTTTGCTATATACATTTACCTTTTAAGAGGAGGAAT', 'cleaved RNA product abundance', 0.252),
  ('CGACATGTCCCGCTTCTTTCATTAATCCGTTAGCAACTGTTTTGCTTTATACATTTACCCTTTAAGAGGAGGAAT', 'cleaved RNA product abundance', 0.206),
  ('CGACATGTCCCGCTTCTTTCATTAATCCGTTAGAACCTGTTTTGCTATATACATTTACCTTTTAAGAGGAGGAAT', 'cleaved RNA product abundance', 0.229),
  ('CGACATGTCCCGCTTCTTTCATTAATCCGTTAGCAACTGTAATGCTATATACATTTACCTTTTAAGAGGAGGAAT', 'cleaved RNA product abundance', 1.06);
